Source listed as ChEMBL document CHEMBL4390678.

Form field: Ki (one value per entry).
# Target System: UniProt:P21588
# Assay Details: Inhibition of recombinant rat C-terminal His-tagged soluble form of CD73 expressed in baculovirus infected Sf9 insect cells using [2,8-3H]AMP as substrate measured after 25 mins by scintillation counting method

| Cpd Smiles | Ki |
| --- | --- |
| CCn1c(=O)ccn([C@@H]2O[C@H](COP(=O)(O)CP(=O)(O)O)[C@@H](O)[C@H]2O)c1=O | > 1 µM |
| CO/N=c1/ccn([C@@H]2O[C@H](COP(=O)(O)CP(=O)(O)O)[C@@H](O)[C@H]2O)c(=O)[nH]1 | 0.257 µM |
| CCCn1c(=O)ccn([C@@H]2O[C@H](COP(=O)(O)CP(=O)(O)O)[C@@H](O)[C@H]2O)c1=O | > 1 µM |
| O=c1cc(O)ccn1[C@@H]1O[C@H](COP(=O)(O)CP(=O)(O)O)[C@@H](O)[C@H]1O | > 1 µM |
| O=c1ccn([C@@]23C[C@H]2[C@H](COP(=O)(O)CP(=O)(O)O)[C@@H](O)[C@H]3O)c(=O)[nH]1 | > 1 µM |
| Nc1nc(=O)n([C@@H]2O[C@H](COP(=O)(O)CP(=O)(O)O)[C@@H](O)[C@H]2O)cc1I | 0.502 µM |
| C=C(Cl)c1cn([C@@H]2O[C@H](COP(=O)(O)CP(=O)(O)O)[C@@H](O)[C@H]2O)c(=O)[nH]c1=O | 0.424 µM |

# Ki (compound: O=c1ccn([C@@H]2O[C@H](COP(=O)(O)CP(=O)(O)O)[C@@H](O)[C@@H]2O)c(=O)[nH]1 ) is > 1 µM

* * *

# Species on record: Homo sapiens
# Assay Details: Inhibition of cytosolic nucleotidase in MaMel.65-CD73 cell cytosolic extract (unknown origin) at 100 uM using AMP as substrate preincubated for 5 mins followed by substrate addition and measured after 60 mins by malachite green oxalate dye based colorimetric method relative to control
Measured Property: inhibition (%)

| Cpd Smiles | inhibition [%] |
| --- | --- |
| Cn1c(=NOCc2ccccc2)ccn([C@@H]2O[C@H](COP(=O)(O)CP(=O)(O)O)[C@@H](O)[C@H]2O)c1=O | -2 |
| O=c1[nH]/c(=N/OCc2ccc3ccccc3c2)ccn1[C@@H]1O[C@H](COP(=O)(O)CP(=O)(O)O)[C@@H](O)[C@H]1O | -5 |

a. O=C(Nc1ccn([C@@H]2O[C@H](COP(=O)(O)CP(=O)(O)O)[C@@H](O)[C@H]2O)c(=O)n1)c1ccccc1
b. O=c1[nH]c(=O)n([C@@H]2O[C@H](COP(=O)(O)CP(=O)(O)O)[C@@H](O)[C@H]2O)cc1F
# input Hi there! Just curious which has the higher inhibition between a and b . Lab log: write the label of the selected item as the result.
# output b
(b: 4%, a: -3%)

* * *

# Target System: 5'-nucleotidase (Rattus norvegicus, UniProt P21588)
# Assay Details: Inhibition of recombinant rat C-terminal His-tagged soluble form of CD73 expressed in baculovirus infected Sf9 insect cells using [2,8-3H]AMP as substrate measured after 25 mins by scintillation counting method
Form field: Ki (one value per entry).
// units = nM; emit number, no label

| Cpd Smiles | Target System | Scale Unit | Ki |
| --- | --- | --- | --- |
| O=c1[nH]c(=O)n([C@@H]2O[C@H](COP(=O)(O)CP(=O)(O)O)[C@@H](O)[C@H]2O)cc1I | 5'-nucleotidase (Rattus norvegicus, UniProt P21588) | nM | 162 |

Note: attention shifts to another entry.
# Ki (molecule: Cn1c(=NOCc2ccccc2)ccn([C@@H]2O[C@H](COP(=O)(O)CP(=O)(O)O)[C@@H](O)[C@H]2O)c1=O ) is 3.67

* * *

# Target System: 5'-nucleotidase (Rattus norvegicus) (UniProt P21588)
# Sequence (whole entry): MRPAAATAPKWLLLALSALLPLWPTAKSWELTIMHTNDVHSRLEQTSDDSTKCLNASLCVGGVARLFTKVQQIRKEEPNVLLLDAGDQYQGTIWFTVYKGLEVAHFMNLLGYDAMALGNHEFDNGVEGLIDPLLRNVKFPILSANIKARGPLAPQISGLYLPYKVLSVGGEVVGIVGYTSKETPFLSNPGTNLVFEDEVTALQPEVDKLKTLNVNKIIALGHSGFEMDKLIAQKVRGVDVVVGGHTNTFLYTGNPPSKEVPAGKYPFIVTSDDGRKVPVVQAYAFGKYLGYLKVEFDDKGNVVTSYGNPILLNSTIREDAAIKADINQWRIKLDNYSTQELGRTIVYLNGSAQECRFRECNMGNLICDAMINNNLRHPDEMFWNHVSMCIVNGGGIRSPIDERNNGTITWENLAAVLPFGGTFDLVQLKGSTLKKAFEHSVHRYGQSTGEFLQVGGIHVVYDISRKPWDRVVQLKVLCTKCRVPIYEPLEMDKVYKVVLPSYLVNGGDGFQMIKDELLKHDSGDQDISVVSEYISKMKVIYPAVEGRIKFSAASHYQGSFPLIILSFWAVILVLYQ
# Assay Details: Inhibition of recombinant rat C-terminal His-tagged soluble form of CD73 expressed in baculovirus infected Sf9 insect cells at 1 uM using [2,8-3H]AMP as substrate measured after 25 mins by scintillation counting method relative to control
Measured Property: inhibition (%)

Consider the following illustrative entries.
| Cpd Smiles | Scale Unit | inhibition |
| --- | --- | --- |
| Nc1ncnc2c1ncn2[C@H]1C[C@H](O)[C@@H](COP(=O)(O)CP(=O)(O)O)O1 | % | 30 |
| O=c1ccn([C@@H]2O[C@H](COP(=O)(O)CP(=O)(O)O)[C@@H](O)[C@H]2O)c(=S)[nH]1 | % | 7 |
| O=c1ccn([C@@H]2O[C@H](COP(=O)(O)CP(=O)(O)O)[C@@H](O)[C@H]2F)c(=O)[nH]1 | % | 11 |
| N[C@@H]1[C@H](O)[C@@H](COP(=O)(O)CP(=O)(O)O)O[C@H]1n1ccc(=O)[nH]c1=O | % | 2 |
| [N-]=[N+]=N[C@@H]1[C@H](O)[C@@H](COP(=O)(O)CP(=O)(O)O)O[C@H]1n1ccc(=O)[nH]c1=O | % | 9 |

A. CCCn1c(=O)ccn([C@@H]2O[C@H](COP(=O)(O)CP(=O)(O)O)[C@@H](O)[C@H]2O)c1=O
B. O=c1ccn([C@@H]2O[C@H](COP(=O)(O)CCP(=O)(O)O)[C@@H](O)[C@H]2O)c(=O)[nH]1
# input Hi there! Just curious which has the higher inhibition between A and B . Lab log: write the label of the selected item as the result.
# output A

I. O=c1ccn([C@@H]2O[C@H](COP(=O)(O)CP(=O)(O)O)[C@@H](O)[C@H]2O)c(=O)n1Cc1ccccc1
II. O=c1cc(O)ccn1[C@@H]1O[C@H](COP(=O)(O)CP(=O)(O)O)[C@@H](O)[C@H]1O
# input Hi there! Just curious which has the higher inhibition between I and II . Lab log: write the label of the selected item as the result.
# output II

I. CCn1c(=O)ccn([C@@H]2O[C@H](COP(=O)(O)CP(=O)(O)O)[C@@H](O)[C@H]2O)c1=O
II. Nc1ncnc2c1ncn2[C@@H]1O[C@H](CO)[C@@H](OP(=O)(O)CP(=O)(O)O)[C@H]1N
# input Hi there! Just curious which has the higher inhibition between I and II . Lab log: write the label of the selected item as the result.
# output II
(II: 8%, I: 4%)

* * *

# Target System: 5'-nucleotidase (Rattus norvegicus) (UniProt P21588)
# Assay Details: Inhibition of recombinant rat C-terminal His-tagged soluble form of CD73 expressed in baculovirus infected Sf9 insect cells at 1 uM using [2,8-3H]AMP as substrate measured after 25 mins by scintillation counting method relative to control
Measured Property: inhibition

Consider the following illustrative entries.
| Cpd Smiles | Target System | Observed Value |
| --- | --- | --- |
| Cc1cn([C@H]2C[C@H](O)[C@@H](COP(=O)(O)CP(=O)(O)O)O2)c(=O)[nH]c1=O | 5'-nucleotidase (Rattus norvegicus) (UniProt P21588) | > 50% |
| C=C(Cl)c1cn([C@@H]2O[C@H](COP(=O)(O)CP(=O)(O)O)[C@@H](O)[C@H]2O)c(=O)n(C)c1=O | 5'-nucleotidase (Rattus norvegicus) (UniProt P21588) | > 50% |

# inhibition (compound: O=c1[nH]c(=O)n([C@@H]2O[C@H](COP(=O)(O)CP(=O)(O)O)[C@@H](O)[C@H]2O)cc1I ) is > 50%

# inhibition (compound: C#Cc1cn([C@@H]2O[C@H](COP(=O)(O)CP(=O)(O)O)[C@@H](O)[C@H]2O)c(=O)[nH]c1=O ) is > 50%

# inhibition (compound: Nc1ncnc2c1ccn2[C@@H]1O[C@H](COP(=O)(O)CP(=O)(O)O)[C@@H](O)[C@H]1O ) is > 50%

# inhibition (compound: O=C(Nc1ccn([C@@H]2O[C@H](COP(=O)(O)CP(=O)(O)O)[C@@H](O)[C@H]2O)c(=O)n1)c1ccccc1 ) is > 50%

# inhibition (compound: Nc1nc(=O)n([C@@H]2O[C@H](COP(=O)(O)CP(=O)(O)O)[C@@H](O)[C@H]2O)cc1F ) is > 50%

# inhibition (compound: O=c1ccn([C@H]2C[C@H](O)[C@@H](CO[P@@](=O)(O)CP(=O)(O)O)O2)c(=O)[nH]1 ) is 37%

# inhibition (compound: O=c1[nH]/c(=N/OCc2ccccc2)ccn1[C@H]1C[C@H](O)[C@@H](COP(=O)(O)CP(=O)(O)O)O1 ) is > 50%

# inhibition (compound: Cn1c(=NOCc2ccccc2)ccn([C@@H]2O[C@H](COP(=O)(O)CP(=O)(O)O)[C@@H](O)[C@H]2O)c1=O ) is > 50%

# inhibition (compound: CCOP(=O)(O)OP(=O)(O)OC[C@H]1O[C@@H](n2ccc(=O)[nH]c2=S)[C@H](O)[C@@H]1O ) is 10%
